system: HARA; assay: relative viability (nuclei count vs DMSO), 5 days (fraction); higher = more cells survive; details: first compound 0.3162 µM
Quick rule for you: relative viability under 1 gets 1.0, anything else gets 0.0.

Consider the worked cases shown below.
CC(C)Oc1cc(Nc2nc(N[C@@H](C)c3ccc(F)cn3)ncc2Cl)n[nH]1 [AZ23] + CC(C)C[C@H](NC(=O)[C@H](Cc1ccccc1)NC(=O)c1cnccn1)B(O)O [Bortezomib] (partner 0.002 µM); 0.0
CC(C)Oc1cc(Nc2nc(N[C@@H](C)c3ccc(F)cn3)ncc2Cl)n[nH]1 [AZ23] + CC1(C)CCC(c2ccc(Cl)cc2)=C(CN2CCN(c3ccc(C(=O)NS(=O)(=O)c4ccc(N[C@H](CCN5CCOCC5)CSc5ccccc5)c(S(=O)(=O)C(F)(F)F)c4)cc3)CC2)C1 [Navitoclax] (partner 0.5 µM); 0.0
CC(C)Oc1cc(Nc2nc(N[C@@H](C)c3ccc(F)cn3)ncc2Cl)n[nH]1 [AZ23] + O=C(c1cc(Cc2n[nH]c(=O)c3ccccc23)ccc1F)N1CCN(C(=O)C2CC2)CC1 [Olaparib] (partner 8 µM); 1.0
CC(C)Oc1cc(Nc2nc(N[C@@H](C)c3ccc(F)cn3)ncc2Cl)n[nH]1 [AZ23] + Nc1ncn([C@H]2C[C@H](O)[C@@H](CO)O2)c(=O)n1 [Decitabine] (partner 2 µM); 1.0

Now, please, on to the next molecule.
API: query returns whether the molecule falls strictly under 1 in relative viability. Query: CC(C)Oc1cc(Nc2nc(N[C@@H](C)c3ccc(F)cn3)ncc2Cl)n[nH]1 [AZ23] + CS(=O)(=O)N1CCN(Cc2cc3nc(-c4cccc5[nH]ncc45)nc(N4CCOCC4)c3s2)CC1 [Pictilisib] (partner 1 µM)
1.0

This collection of values is drawn from the supplement of paper PMC10307832.
